- SUBJECT_OF_TEST: human HSL (Homo sapiens, UniProt Q05469)
- Construct: overlapping PCR to generate a full length human HSL ORF with a 3′-His6 tag; His6 (C)
- Sequence (Q05469 1-1076): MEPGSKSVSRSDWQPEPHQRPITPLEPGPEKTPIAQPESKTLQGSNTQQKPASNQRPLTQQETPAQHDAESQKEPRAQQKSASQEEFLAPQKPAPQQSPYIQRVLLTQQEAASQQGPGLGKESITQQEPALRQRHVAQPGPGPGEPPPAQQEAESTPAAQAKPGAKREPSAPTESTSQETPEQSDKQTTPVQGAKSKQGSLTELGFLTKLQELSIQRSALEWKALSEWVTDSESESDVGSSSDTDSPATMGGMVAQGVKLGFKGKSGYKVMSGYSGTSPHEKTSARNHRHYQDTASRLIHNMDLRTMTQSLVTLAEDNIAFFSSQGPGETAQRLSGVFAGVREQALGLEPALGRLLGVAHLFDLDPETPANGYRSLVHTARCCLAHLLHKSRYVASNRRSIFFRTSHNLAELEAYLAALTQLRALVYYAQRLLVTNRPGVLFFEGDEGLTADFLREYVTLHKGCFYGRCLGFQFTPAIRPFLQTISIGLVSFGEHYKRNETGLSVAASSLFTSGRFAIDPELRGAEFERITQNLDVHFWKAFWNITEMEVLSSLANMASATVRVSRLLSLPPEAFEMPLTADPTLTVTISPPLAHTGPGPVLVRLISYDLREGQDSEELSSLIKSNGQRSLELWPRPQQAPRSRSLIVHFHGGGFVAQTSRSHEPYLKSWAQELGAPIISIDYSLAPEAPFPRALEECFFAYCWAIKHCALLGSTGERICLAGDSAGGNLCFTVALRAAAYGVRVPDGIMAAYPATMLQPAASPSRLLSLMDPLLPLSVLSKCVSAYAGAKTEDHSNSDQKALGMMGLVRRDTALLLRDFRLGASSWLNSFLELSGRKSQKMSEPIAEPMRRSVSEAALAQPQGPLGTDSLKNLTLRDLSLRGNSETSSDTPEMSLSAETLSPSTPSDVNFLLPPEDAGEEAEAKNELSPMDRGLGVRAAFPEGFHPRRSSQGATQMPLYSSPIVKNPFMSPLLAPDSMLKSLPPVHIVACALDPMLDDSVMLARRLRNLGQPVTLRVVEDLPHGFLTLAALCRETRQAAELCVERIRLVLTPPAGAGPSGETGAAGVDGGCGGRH
- TEST_DESCRIPTION: Human Hormone-Sensitive Lipase (HSL) Enzyme Inhibition Assay
- CONDITION_INFO: colorimetric assay, 2,3-dimercapto-1-propanol tributyrate (DMPT) substrate, 37° C. for 20 minutes, absorbance at 405 nm; read-out: HSL hum IC50
RESULT_TYPE: IC50 (nM)

{"columns": ["COMPOUND", "UNITS_OF_MEASURE", "IC50"],
 "data": [
  ["CC(CO)Nc1ncccc1S(=O)(=O)N1CCC2(CCN(c3ccc(OC(F)(F)F)cc3)C2=O)CC1 (stereo not shown) [Example 193]", "nM", 60]
]}

a: O=C(COC1CCCC1)N1CCC2(CC1)CCN(c1ccc(OC(F)(F)F)cc1)C2=O [Example 226]
b: Cn1cc2cc(N3CCC4(CCN(S(=O)(=O)c5ccccc5Cl)CC4)C3=O)ccc2n1 [Example 131]
c: Cc1cccc(Cl)c1S(=O)(=O)N1CCC2(CCN(c3ccc(OC(F)(F)F)cc3)C2=O)CC1 [Example 312]
d: CC(C)CS(=O)(=O)N1CCC2(CCN(c3ccc(OC4CCCC4)cc3)C2=O)CC1 [Example 66]
Would you mind ranking these compounds by ascending IC50? Ranked list of labels, please, in the requested order.
a, c, d, b

P: O=C1N(c2ccc(C(O)C(F)(F)F)cc2)CCC12CCN(S(=O)(=O)C1CC1)CC2 (stereo not shown) [Example 170]
Q: CCCS(=O)(=O)N1CCC2(CCN(c3ccc(C4CC4)cc3)C2=O)CC1 [Example 39]
R: CCCc1ccc(N2CCC3(CCN(S(=O)(=O)c4ccccc4S(C)(=O)=O)CC3)C2=O)cc1 [Example 57]
S: CC(Oc1ccc(N2CCC3(CCN(S(=O)(=O)c4ccccc4OC(F)(F)F)CC3)C2=O)cn1)C(F)(F)F (stereo not shown) [Example 89]
Task for the reader: rank each entry by its IC50, from the minimum upward. Give your ranking as a list of the labels in the requested order.
S, R, Q, P

I: Cc1noc(C)c1S(=O)(=O)N1CCC2(CCN(c3ccc(C(F)(F)F)cc3)C2=O)CC1 [Example 164]
II: O=C1N(c2ccc(OC(F)(F)F)cc2)CCC12CCN(S(=O)(=O)CC1(O)CCCC1)CC2 [Example 210]
Which gives the smaller IC50 number: I or II ? Answer = label.
II
(II: 60 nM, I: 280 nM)

P: O=C(N1CCCCC1)N1CCC2(CC1)CCN(c1ccc(OC(F)(F)F)cc1)C2=O [Example 256]
Q: Cc1nnc(Cc2ccc(N3CCC4(CCN(S(=O)(=O)c5ccccc5Cl)CC4)C3=O)cc2)o1 [Example 137]
Field: lower IC50 | Options: P / Q Returns: label corresponding to the selected item.
P
(P: 100 nM, Q: 220 nM)

A: COC1(CS(=O)(=O)N2CCC3(CCN(c4ccc(OC(F)(F)F)cc4)C3=O)CC2)CCCC1 [Example 211]
B: O=C1N(c2ccc(OCC(F)(F)F)cc2)CCC12CCN(S(=O)(=O)c1ccccc1OC(F)(F)F)CC2 [Example 79]
Just curious, which one has the larger IC50 reading, A or B ? Kindly give the label for the entry you pick.
A

a: CCN(Cc1ccccc1)C(=O)N1CCC2(CC1)CCN(c1ccc(OC(F)(F)F)cc1)C2=O [Example 310]
b: CCN(C(=O)N1CCC2(CC1)CCN(c1ccc(OC(F)(F)F)cc1)C2=O)c1cccc(C)c1 [Example 308]
c: CN(C(=O)N1CCC2(CC1)CCN(c1ccc(OC(F)(F)F)cc1)C2=O)c1cccc(F)c1 [Example 280]
d: CC(C)Oc1ccc(N2CCC3(CCN(S(=O)(=O)N4CCOCC4)CC3)C2=O)cc1 [Example 15]
Put the items in sequence by IC50, from largest down. Return the labels ranked in the requested order, please.
d, a, c, b
(d: 360 nM, a: 170 nM, c: 90 nM, b: 50 nM)

A: CC(C)CS(=O)(=O)N1CCC2(CCN(c3ccc(C(C)(O)C(F)(F)F)cc3)C2=O)CC1 (stereo not shown) [Example 168]
B: CCc1ccc(N2CCC3(CCN(S(=O)(=O)c4ccccc4OC(F)(F)F)CC3)C2=O)cc1 [Example 54]
Choose between A and B : whose measured IC50 value is numerically larger? Give the label of your selection.
A
(A: 130 nM, B: 30 nM)

I: CC(C)(O)CS(=O)(=O)N1CCC2(CCN(c3ccc(OC(F)(F)F)cc3)C2=O)CC1 [Example 212]
II: O=C1N(c2ccc(C3CC3)cc2)CCC12CCN(S(=O)(=O)c1ccc(F)cc1C(F)(F)F)CC2 [Example 72]
For the pair I and II , which entry has the numerically smaller recorded IC50? Bench note: the answer is the label of the chosen record.
II

Origin of measurements: patent US8329904B2
